Test: A quantitative high throughput screen for small molecules that induce DNA re-replication in SW480 colon adenocarcinoma cells. Also: nearly all actives have a fitted effect of over 55% in size.
Conditions: Hoechst DNA content imaging, 48 h; series mostly up to 46.1 µM
Text: H Molecular Libraries Probe Production Network [MLPCN] NIH Chemical Genomics Center [NCGC] […] To identify compounds that induce re-replication in normal cells, an image-based assay was used to measure DNA content of nuclei, as detected by the fluorescent DNA binding dye, Hoechst. Cell nuclei were imaged by a fluorescence scanning plate imager and compounds that induce DNA re-replication were identified by the increase of nuclei with elevated fluorescence intensity […]
About 6,200 (1.8%) of roughly 340,000 compounds were called active. Inconclusive results (about 10%) are left out. Calls follow the shape of the dose curve; as a rule, active = well fitted activation curve with a large enough effect; inconclusive = small, poorly fitted or top-dose-only effect; inactive = no such curve, though single readings can be large or run the other way. This is one part of a sample in which actives are shown more often than they occur.
Outcomes: active, inactive

{"columns": ["Molecule", "Assigned Class"],
 "data": [
  ["C=CC[C@H](CC(=O)OC(C)(C)C)C(=O)OC[C@H]1CCCN1C(=O)[C@H](CC=C)CC(=O)N(CCO)Cc1ccccc1", "inactive"],
  ["O=C1c2cccc3c([N+](=O)[O-])ccc(c23)C(=O)N1CC1CCCO1 (stereo unspecified)", "active"],
  ["Nc1ccc2c(c1)C(=Cc1cccnc1)c1ccccc1-2", "inactive"],
  ["Nc1cc(=O)n(Cc2ccccc2)c(=O)n1Cc1ccccc1", "inactive"],
  ["COc1ccc(C(CNC(=O)COc2ccccc2OC)N2CCCCC2)cc1 (stereo unspecified)", "inactive"],
  ["CC1CCCCC1NCC(=O)Nc1ccccc1C(=O)Nc1ccccc1 (stereo unspecified)", "inactive"],
  ["CN1CN(C)c2ccc([N+](=O)[O-])c3cccc1c23", "inactive"],
  ["COc1ccc(C(CNC(=O)COc2ccc([N+](=O)[O-])cc2)N2CCCCC2)cc1 (stereo unspecified)", "inactive"],
  ["COc1ccc(-c2nnc(-c3ccc4ccccc4c3)o2)cc1", "inactive"],
  ["CCc1ccc(OCC(=O)NCC(c2ccc(Cl)cc2)N2CCCCC2)cc1 (stereo unspecified)", "active"],
  ["Cc1cc(NC(=O)c2cc3ccccc3o2)no1", "inactive"]
]}

* * *

Assay: A quantitative high throughput screen for small molecules that induce DNA re-replication in SW480 colon adenocarcinoma cells. Also: nearly all actives have a fitted effect of over 55% in size.
Settings: Hoechst DNA content imaging, 48 h; series mostly up to 46.1 µM
Hit rate of the full screen: of about 340,000 compounds, about 6,200 (1.8%) were called active. Not shown: some 10% with an inconclusive outcome. The call rests on the fitted dose curve; in most records, active means well fitted activation curve with a large enough effect; inconclusive means small, poorly fitted or top-dose-only effect; inactive means no such curve, though single readings can be large or run the other way. Many of the other results were omitted from the sample, so actives are more common in it than they were.
Classes used: class 1 for active, class 0 for inactive

{"columns": ["Molecule", "Assigned Class"],
 "data": [
  ["c1ccc(C(=NNc2nc3ccccc3s2)c2ccccn2)cc1", "class 1"],
  ["c1ccc2sc(NN=C3CCCC3)nc2c1", "class 0"],
  ["Cc1noc(C)c1NC(=O)Nc1cccc2c1O[C@H](CN(C)C(=O)Nc1ccccc1)[C@@H](C)CN([C@H](C)CO)C2=O", "class 0"],
  ["O=C(CCNC(=O)c1ccccc1)Nc1nc2ccccc2s1", "class 0"],
  ["O=C(CC1Sc2ccccc2NC1=O)NNc1ccc(Cl)c(Cl)c1 (stereo unspecified)", "class 0"],
  ["Cc1ccc(C)c(S(=O)(=O)N(C)c2ccc(OC(=O)C3CCN(C(=O)c4ccc(F)cc4)CC3)cc2)c1", "class 0"]
]}

* * *

Assay: A quantitative high throughput screen for small molecules that induce DNA re-replication in SW480 colon adenocarcinoma cells. Also: nearly all actives have a fitted effect of over 55% in size.
Details: Hoechst DNA content imaging, 48 h; series mostly up to 46.1 µM
In all, about 340,000 compounds went through this assay and about 6,200 (1.8%) were called active. Another 10% or so got no clear call; they are omitted. The call rests on the fitted dose curve; in most records, active means well fitted activation curve with a large enough effect; inconclusive means small, poorly fitted or top-dose-only effect; inactive means no such curve, though single readings can be large or run the other way. Only a selection was taken, and actives are over-represented in it overall.
Outcomes: active, inactive

{"columns": ["Compound", "Assigned Class"],
 "data": [
  ["Cc1cc([N+](=O)[O-])ccc1NS(=O)(=O)c1ccccc1", "inactive"],
  ["Cc1cc(-c2n[nH]c(=S)n2/N=C/C(Br)=C/c2ccccc2)n[nH]1", "active"],
  ["COc1cc(Cl)c(C)cc1NC(=O)CSc1nnc(CN2CCCC2)o1", "inactive"],
  ["COc1ccc(Cn2c(=S)[nH]c3cc(C(=O)NCCCN4CCOCC4)ccc3c2=O)cc1", "inactive"],
  ["O=C(CC1SC(N2CCOCC2)=NC1=O)Nc1ccccc1F (configuration not stated)", "inactive"],
  ["O=C(NCCN1CCOCC1)c1ccc2c(c1)N(Cc1ccc(Cl)cc1)CCS2", "inactive"],
  ["O=C(COc1ccccc1F)Nc1nc(-c2ccccn2)cs1", "inactive"],
  ["Cc1cc(-c2ccc(C)c(S(=O)(=O)NC(C)Cc3ccco3)c2)on1 (configuration not stated)", "inactive"],
  ["O=C(NCCC1CCCCN1S(=O)(=O)c1ccccc1)C(=O)NCC1CCCO1 (configuration not stated)", "inactive"],
  ["O=C(NCCC1CCCCN1S(=O)(=O)c1ccc(F)cc1)C(=O)NC1CC1 (configuration not stated)", "inactive"],
  ["OCCN1CCN(CCO)C1=S", "inactive"],
  ["CC(C(=O)NC1CCCC1)N(c1ccc(Oc2ccccc2)cc1)S(C)(=O)=O (configuration not stated)", "inactive"],
  ["COc1ccc(/C=N/NC(=O)C(C)N(c2ccc(OC)cc2)S(C)(=O)=O)cc1 (configuration not stated)", "active"],
  ["COc1ccc2c(CC(=O)NNC(=O)c3ccccc3F)coc2c1", "inactive"],
  ["Cc1cc(-c2ccc(C)c(S(=O)(=O)NCCCN(Cc3ccccc3)C(C)C)c2)on1", "active"],
  ["Oc1ccccc1/C=N/n1c(-c2cccs2)n[nH]c1=S", "inactive"],
  ["CCOc1ccccc1CNS(=O)(=O)c1cc(-c2cc(C)no2)ccc1C", "inactive"],
  ["C(=N/Nc1cc(N2CCOCC2)nc(N2CCOCC2)n1)/c1ccccc1", "active"],
  ["CC1(C)C(=O)CCC2(C)C1=CCC1C2C(=O)CC2(C)C1CCC2(O)C(=O)CO (configuration not stated)", "inactive"],
  ["Cc1cc(C)nc(Nc2n[nH]c(-c3ccccc3N)n2)n1", "active"],
  ["COc1ccc(/C=N/NS(=O)(=O)c2ccc(NC(C)=O)cc2)cc1", "inactive"],
  ["COc1cccc(CNC(=O)C(=O)NCCC2CCCCN2S(=O)(=O)c2ccc(C)cc2)c1 (configuration not stated)", "active"]
]}

* * *

Assay: A quantitative high throughput screen for small molecules that induce DNA re-replication in SW480 colon adenocarcinoma cells. Also: nearly all actives have a fitted effect of over 55% in size.
Conditions: Hoechst DNA content imaging, 48 h; series mostly up to 46.1 µM
Among all 340,000 compounds or so, about 6,200 (1.8%) were called active. Not shown: some 10% with an inconclusive outcome. Calls follow the shape of the dose curve; as a rule, active = well fitted activation curve with a large enough effect; inconclusive = small, poorly fitted or top-dose-only effect; inactive = no such curve, though single readings can be large or run the other way. What follows is part of a selection rich in actives, with near analogues and random picks from the rest.
Labels: label 1 for active, label 0 for inactive

{"columns": ["Molecule", "Assigned Class"],
 "data": [
  ["C=CCC[C@H](Cc1ccc(F)cc1)C(=O)OC[C@@H](NC(=O)[C@@H](CC=C)CC(=O)N[C@H](CO)Cc1ccccc1)C(C)(C)C", "label 0"],
  ["COc1ccc(OCCNC(=O)c2cc(C3CC3)nc3c2cnn3C(C)C)cc1", "label 0"],
  ["COc1ccccc1C1C2=C(COC2=O)Nc2cc3c(cc21)OCO3 (centres undefined)", "label 0"],
  ["COc1cccc(NC(=O)COc2cccnc2[N+](=O)[O-])c1", "label 0"],
  ["Cc1ccc(OCC(=O)Nc2ccc(N3CCN(C(=O)c4ccco4)CC3)cc2)c(C)c1", "label 0"],
  ["C[C@@H]1CN([C@@H](C)CO)C(=O)c2cccc(NS(=O)(=O)c3ccc(F)cc3)c2O[C@H]1CN(C)C(=O)NC1CCCCC1", "label 0"],
  ["COc1cccc(C(=O)Nc2ccc(N3CCN(C(=O)c4ccco4)CC3)cc2)c1", "label 1"],
  ["CCC(=O)Nc1ccc(C(=O)N2CCN(C(=O)c3ccco3)CC2)cc1", "label 0"],
  ["O=C(CC(O)(C(F)(F)F)C(F)(F)F)Nc1ccc(Cl)c(Cl)c1", "label 1"]
]}

* * *

Experiment: A quantitative high throughput screen for small molecules that induce DNA re-replication in SW480 colon adenocarcinoma cells. Also: nearly all actives have a fitted effect of over 55% in size. Also: potency is read from the fitted curve at half-maximal effect.
Conditions: Hoechst DNA content imaging, 48 h; series mostly up to 46.1 µM
Hit rate of the full screen: of about 340,000 compounds, about 6,200 (1.8%) were called active. Another 10% or so got no clear call; they are omitted. The list comes from a sample in which actives are over-represented; it also holds close analogues and randomly drawn compounds.

{"columns": ["Molecule", "Potency"],
 "data": [
  ["Cc1ccc2[nH]c(=O)c(CC(=O)O)c(-c3ccccc3)c2c1", "inactive"],
  ["O=C(COc1ccc([N+](=O)[O-])cc1Cl)Nc1ccc2[nH]c(=O)[nH]c2c1", "inactive"],
  ["Cc1ccc(CC(=O)Nc2ccc(S(=O)(=O)N3CCOCC3)cc2)cc1C", "inactive"],
  ["Clc1ccc(CN2CCN(/N=C/c3cccnc3)CC2)cc1", "inactive"],
  ["C#CCOCCOCCOCCNc1nc(N2CCOCC2)nc(N2CCN(C(=O)[C@H](Cc3ccc(O)cc3)n3cc(CCO)nn3)CC2)n1", "inactive"],
  ["O=C1/C(=C\\c2cccnc2)CN(Cc2ccccc2)C/C1=C\\c1cccnc1", "0.13 µM (active)"],
  ["COc1cc(/C=C2\\Oc3ccc(C#Cc4ccc(O)cc4)cc3C2=O)cc(OC)c1", "inactive"],
  ["Cc1cc(C2=NNC(=Nc3ccc(S(=O)(=O)N4CCOCC4)cc3)SC2)c(C)n1CC1CCCO1 (stereo not given)", "3.66 µM (active)"],
  ["Cc1csc(=O)n1CC(=O)Nc1ccc(S(C)(=O)=O)cc1", "inactive"],
  ["O=C(CCN1CCCCC1)N=Nc1c(O)[nH]c2ccccc12", "18.4 µM (active)"]
]}
